- TESTED_TARGET: ubiquitin (Ub), monomeric, wild type (UniProt P0CG48 1-76)
- MEASUREMENT_DESCRIPTION: NMR titration
MEASURED_METRIC: Kd (µM)
Give bare numbers, in µM.

Req: I have this binder here, Ddi1UBL, ubiquitin-like (UBL) domain of DNA-damage-inducible 1 protein (Ddi1) from Saccharomyces cerevisiae, residues 2-80 (domain or fragment, S. cerevisiae, UniProt P40087 2-80, looked up) DLTISNELTGEIYGPIEVSEDMALTDLIALLQADCGFDKTKHDLYYNMDILDSNRTQSLKELGLKTDDLLLIRGKISNS , and I need its recorded Kd.
Resp: 175

Consider now this further binder.
Req: I have this binder here, TFPEQTIKQLMDLGFPRDAVVKALKQTNGNAEFAASLLFQ (domain or fragment, S. cerevisiae, UniProt P40087 389-428, looked up) [Ddi1UBA, ubiquitin-associated (UBA) domain of Ddi1 from Saccharomyces cerevisiae, residues 389-428] , and I need its recorded Kd.
Resp: 291
